Molecular target: recombinant SARS-CoV-2 Mpro (Severe acute respiratory syndrome coronavirus 2)
Assay: SARS-CoV-2 Mpro inhibition assay (FRET-based proteolytic activity assay)
Format: biochemical
Conditions: Ki, substrate concentration-independent inhibition constant; 0.2 μM enzyme, 20 μM substrate, compound 125 to 0 μM, 2.5% DMSO
measure: Ki

Some compounds with known Ki results, for comparison:
- compound: "O=c1cc(-c2ccc(O)c(O)c2)oc2cc(O[C@@H]3O[C@H](CO)[C@@H](O)[C@H](O)[C@H]3O)cc(O)c12 [luteoloside]"
  measure: "Ki"
  measured_value: "> 125 µM"
- compound: "COc1ccc(-c2cc(=O)c3c(O)cc(O[C@@H]4O[C@H](CO[C@@H]5O[C@@H](C)[C@H](O)[C@@H](O)[C@H]5O)[C@@H](O)[C@H](O)[C@H]4O)cc3o2)cc1"
  measure: "Ki"
  measured_value: "> 125 µM"
- compound: "CC1CCC2(C(=O)OC3OC(CO)C(O)C(O)C3O)CCC3(C)C(=CCC4C5(C)CCC(OC6OCC(O)C(O)C6O)C(C)(C)C5CCC43C)C2C1(C)O (stereo not shown) [ziyu-glycoside I]"
  measure: "Ki"
  measured_value: "> 125 µM"
- compound: "C[C@@H]1O[C@@H](OC[C@H]2O[C@@H](Oc3cc(O)c4c(c3)O[C@H](c3ccc(O)cc3)CC4=O)[C@H](O)[C@@H](O)[C@@H]2O)[C@H](O)[C@H](O)[C@H]1O"
  measure: "Ki"
  measured_value: "> 125 µM"
- compound: "O=C(O[C@@H]1O[C@@H]2COC(=O)c3cc(O)c(O)c(O)c3-c3c(cc(O)c(O)c3O)C(=O)O[C@H]([C@H]1O)[C@@H]2O)c1cc(O)c(O)c(O)c1"
  measure: "Ki"
  measured_value: "> 125 µM"
- compound: "CC1OC(OC2C(c3c(O)cc(O)c4c(=O)cc(-c5ccc(O)cc5)oc34)OC(CO)C(O)C2O)C(O)C(O)C1O (stereo not shown) [vitexin-2-O-rhamnoside, vitexin-2-O-rhaMnoside]"
  measure: "Ki"
  measured_value: "23 µM"

Now look at this one.
Noted for `O=c1cc(-c2ccc(O)c(-c3c(O)cc(O)c4c(=O)cc(-c5ccc(O)cc5)oc34)c2)oc2cc(O)cc(O)c12` : its Ki reads 10 µM

====

Biological target: recombinant SARS-CoV-2 Mpro (Severe acute respiratory syndrome coronavirus 2)
Test: SARS-CoV-2 Mpro inhibition assay (FRET-based proteolytic activity assay)
Type: biochemical
measure: IC50

Some compounds with known IC50 results, for comparison:
- compound: "COc1ccc(-c2cc(=O)c3c(O)cc(O[C@@H]4O[C@H](CO[C@@H]5O[C@@H](C)[C@H](O)[C@@H](O)[C@H]5O)[C@@H](O)[C@H](O)[C@H]4O)cc3o2)cc1 [linarin]"
  IC50: "> 125 µM"
- compound: "C[C@@H]1O[C@@H](OC[C@H]2O[C@@H](Oc3cc(O)c4c(c3)O[C@H](c3ccc(O)cc3)CC4=O)[C@H](O)[C@@H](O)[C@@H]2O)[C@H](O)[C@H](O)[C@H]1O [narirutin]"
  IC50: "> 125 µM"
- compound: "O=C1c2c(O)cccc2C([C@@H]2O[C@H](CO)[C@@H](O)[C@H](O)[C@H]2O)c2cc(CO)cc(O)c21 (some centres unmarked) [aloin]"
  IC50: "96 µM"

Measured IC50 for this entry CC1CCC2(C(=O)OC3OC(CO)C(O)C(O)C3O)CCC3(C)C(=CCC4C5(C)CCC(OC6OCC(O)C(O)C6O)C(C)(C)C5CCC43C)C2C1(C)O (centres unmarked) [ziyu-glycoside I] on recombinant SARS-CoV-2 Mpro (Severe acute respiratory syndrome coronavirus 2): > 125 µM
